Each entry below carries its recorded kon.
Target: T1, Recombinant Human BDCA2 (human, UniProt Q8WTT0 45-213, limits assumed)
T1 construct: also called hBDCA2 (SPR analyte); human BDCA2 antigen
T1 sequence (looked up): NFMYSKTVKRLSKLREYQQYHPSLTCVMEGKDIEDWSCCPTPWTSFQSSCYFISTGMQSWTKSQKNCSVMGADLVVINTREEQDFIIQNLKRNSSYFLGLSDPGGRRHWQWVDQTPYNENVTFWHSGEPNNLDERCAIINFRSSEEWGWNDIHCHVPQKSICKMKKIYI
Assay: SPR (BIAcore), antibody captured by anti-human IgG (Fc), hBDCA2 as analyte, 1:1 model
READOUT LABEL: kon (M⁻¹ s⁻¹)

{"BINDER": "Hu033-12 (antibody, IgG1, V domains shown, Humanized IgG1; also called Hu033-12(BM2)) VH: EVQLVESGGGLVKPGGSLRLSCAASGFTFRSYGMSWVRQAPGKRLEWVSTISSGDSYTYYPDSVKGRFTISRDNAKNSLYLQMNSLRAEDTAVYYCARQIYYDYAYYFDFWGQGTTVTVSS VL: DIVMTQSPDSLAVSLGERATINCRASESVSFRTSHLMHWYQQKPGQPPKLLIYGASNLESGVPDRFSGSGSGTDFTLTISSLQAEDVAVYYCQQSIEDPPTFGGGTKVEIK", "UNIT TAG": "M⁻¹ s⁻¹", "RECORDED NUMBER": 527000}
{"BINDER": "Hu033-13 (antibody, IgG1, V domains shown, Humanized IgG1; also called Hu033-13(BM4)) VH: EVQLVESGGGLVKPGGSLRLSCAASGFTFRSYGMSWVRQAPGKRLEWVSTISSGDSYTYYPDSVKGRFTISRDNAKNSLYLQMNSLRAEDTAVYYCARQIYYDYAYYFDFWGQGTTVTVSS VL: DIVLTQSPDSLAVSLGERATINCRASESVSFRTSHLMHWYQQKPGQPPKLLIYGASNLESGVPDRFSGSGSGTDFTLTISSLQAEDVAVYFCQQSIEDPPTFGGGTKVEIK", "UNIT TAG": "M⁻¹ s⁻¹", "RECORDED NUMBER": 454000}
{"BINDER": "Hu033-04 (antibody, IgG1, V domains shown, Humanized IgG1; also called Hu033-04(BM0)) VH: EVQLVESGGGLVKPGGSLRLSCAASGFTFSSYGMSWVRQAPGKGLEWVSTISSGDSYTYYPDSVKGRFTISRDNAKNSLYLQMNSLRAEDTAVYYCARQIYYDYAYYFDFWGQGTTVTVSS VL: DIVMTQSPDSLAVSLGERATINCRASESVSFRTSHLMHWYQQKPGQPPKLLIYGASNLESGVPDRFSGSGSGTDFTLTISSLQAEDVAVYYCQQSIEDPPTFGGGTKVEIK", "UNIT TAG": "M⁻¹ s⁻¹", "RECORDED NUMBER": 598000}
{"BINDER": "Hu033-16 (antibody, IgG1, V domains shown, Humanized IgG1; also called Hu033-16(BM4)) VH: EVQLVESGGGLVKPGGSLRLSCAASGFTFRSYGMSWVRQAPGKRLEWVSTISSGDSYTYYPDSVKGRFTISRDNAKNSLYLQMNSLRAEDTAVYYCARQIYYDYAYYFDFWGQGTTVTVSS VL: EIVLTQSPATLSLSPGERATLSCRASESVSFRTSHLMHWYQQKPGQAPRLLIYGASNLESGIPARFSGSGSETDFTLTISRLEPEDFAVYFCQQSIEDPPTFGGGTKVEIK", "UNIT TAG": "M⁻¹ s⁻¹", "RECORDED NUMBER": 569000}
{"BINDER": "Hu033-15 (antibody, IgG1, V domains shown, Humanized IgG1; also called Hu033-15(BM2)) VH: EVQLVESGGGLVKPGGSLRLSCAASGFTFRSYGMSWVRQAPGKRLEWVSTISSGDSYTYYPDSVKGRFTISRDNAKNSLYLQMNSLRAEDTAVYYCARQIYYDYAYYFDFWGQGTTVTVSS VL: EIVLTQSPATLSLSPGERATLSCRASESVSFRTSHLMHWYQQKPGQAPRLLIYGASNLESGIPARFSGSGSGTDFTLTISRLEPEDFAVYYCQQSIEDPPTFGGGTKVEIK", "UNIT TAG": "M⁻¹ s⁻¹", "RECORDED NUMBER": 487000}
{"BINDER": "Hu033-02 (antibody, IgG1, V domains shown, Humanized IgG1; also called Hu033-02(BM2)) VH: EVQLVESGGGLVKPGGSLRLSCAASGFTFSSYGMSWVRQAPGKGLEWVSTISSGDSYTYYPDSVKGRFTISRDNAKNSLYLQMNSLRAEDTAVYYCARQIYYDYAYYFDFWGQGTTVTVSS VL: DIVLTQSPASLAVSPGQRATITCRASESVSFRTSHLMHWYQQKPGQPPKLLIYGASNLESGVPARFSGSGSETDFTLTINPVEAEDTANYYCQQSIEDPPTFGGGTKVEIK", "UNIT TAG": "M⁻¹ s⁻¹", "RECORDED NUMBER": 707000}
{"BINDER": "Hu033-10 (antibody, IgG1, V domains shown, Humanized IgG1; also called Hu033-10(BM4)) VH: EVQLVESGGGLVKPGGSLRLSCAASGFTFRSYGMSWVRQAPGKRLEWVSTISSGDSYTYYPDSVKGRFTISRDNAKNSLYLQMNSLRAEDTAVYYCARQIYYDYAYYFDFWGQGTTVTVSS VL: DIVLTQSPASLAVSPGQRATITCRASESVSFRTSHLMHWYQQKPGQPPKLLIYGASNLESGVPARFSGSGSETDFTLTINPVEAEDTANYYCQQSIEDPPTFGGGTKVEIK", "UNIT TAG": "M⁻¹ s⁻¹", "RECORDED NUMBER": 589000}
{"BINDER": "Hu033-23 (antibody, IgG1, V domains shown, Humanized IgG1; also called Hu033-23(BM3)) VH: EVQLVESGGGLVKPGGSLRLSCAASGFTFRSYGMSWVRQAPGKRLEWVSTISSGDSYTYYPDSVKGRFTISRDNAKNSLYLQMNSLKAEDTAVYYCARQIYYDYAYYFDFWGQGTTVTVSS VL: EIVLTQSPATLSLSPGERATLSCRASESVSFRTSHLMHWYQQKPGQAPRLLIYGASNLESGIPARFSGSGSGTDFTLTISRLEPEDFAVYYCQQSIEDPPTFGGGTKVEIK", "UNIT TAG": "M⁻¹ s⁻¹", "RECORDED NUMBER": 466000}
{"BINDER": "Hu033-08 (antibody, IgG1, V domains shown, Humanized IgG1; also called Hu033-08(BM2)) VH: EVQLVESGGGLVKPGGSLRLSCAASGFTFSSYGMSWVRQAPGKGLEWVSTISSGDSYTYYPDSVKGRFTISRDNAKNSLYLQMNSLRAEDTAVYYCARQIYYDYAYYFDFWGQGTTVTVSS VL: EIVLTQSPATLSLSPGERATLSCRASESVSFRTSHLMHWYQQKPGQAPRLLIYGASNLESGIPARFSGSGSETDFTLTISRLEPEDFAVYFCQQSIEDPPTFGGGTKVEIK", "UNIT TAG": "M⁻¹ s⁻¹", "RECORDED NUMBER": 740000}
{"BINDER": "Hu033-06 (antibody, IgG1, V domains shown, Humanized IgG1; also called Hu033-06(BM3)) VH: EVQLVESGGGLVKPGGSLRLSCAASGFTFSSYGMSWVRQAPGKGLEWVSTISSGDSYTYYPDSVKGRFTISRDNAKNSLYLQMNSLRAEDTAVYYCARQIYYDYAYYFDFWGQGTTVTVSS VL: DIVLTQSPDSLAVSLGERATINCRASESVSFRTSHLMHWYQQKPGQPPKLLIYGASNLESGVPDRFSGSGSETDFTLTISPLQAEDVAVYFCQQSIEDPPTFGGGTKVEIK", "UNIT TAG": "M⁻¹ s⁻¹", "RECORDED NUMBER": 733000}
{"BINDER": "mab033c (antibody, V domains shown) VH: EVQMVESGGDLVKPGDSLKLSCAASGFTFRSYGMSWVRQTPDKRLEWVATISSGDSYTYYPDSVKGRFTISRDNAKNTLYLQMSSLKSEDTALYYCARQIYYDYAYYFDFWGQGTTLTVSS VL: DIVLTQSPASLAVSLGQRATISCRASESVSFRTSHLMHWYQQKPGQPPKLLIYGASNLESGVPARFSGSGSETDFTLNIHPVEEEDAAAYFCQQSIEDPPTFGGGTKLEIK", "UNIT TAG": "M⁻¹ s⁻¹", "RECORDED NUMBER": 698000}
